# Test method notes: in vivo
# Experimental conditions: plasma

>  <Compound smiles>
N[C@H]1C[C@@H](C(=O)O)CC1=C(F)F

>  <half-life>
4 to 6 h

$$$$
